Source of measurements: ChEMBL document CHEMBL3217457

- Test system: Calf thymus DNA
- testName: Binding affinity to calf thymus DNA assessed as change in melting temperature at compound to DNA ratio of 1:5 after 18 hrs by thermal denaturation analysis
- Assay type: nucleic-acid assay
- testContext: Bos taurus
So basically: is ΔTm under 7 °C? Then condition met. Not under? Then condition not met.

Look over these answered cases.
COc1cc2c(cc1OCCCN1CCN(CCCCn3c4ccccc4c4ccccc43)CC1)N=C[C@@H]1CCCN1C2=O | condition not met
COc1ccc(-c2ccc3c(c2)c2cc(-c4ccc(OC)cc4)ccc2n3CCCCCOc2cc3c(cc2OC)C(=O)N2CCC[C@H]2C=N3)cc1 | condition met

Is 7 °C strictly greater than the molecule's reported ΔTm? molecule: COc1cc2c(cc1OCCCCN1CCN(CCCn3c4ccccc4c4ccccc43)CC1)N=C[C@@H]1CCCN1C2=O
condition not met

Is 7 °C strictly greater than the molecule's reported ΔTm? molecule: COc1cc2c(cc1OCCCCn1c3ccccc3c3ccccc31)N=C[C@@H]1CCCN1C2=O
condition met

Is 7 °C strictly greater than the molecule's reported ΔTm? molecule: COc1cc2c(cc1OCCCCN1CCN(CCCCn3c4ccccc4c4ccccc43)CC1)N=C[C@@H]1CCCN1C2=O
condition not met

----------
- Test system: MCF7
- testName: Cell cycle arrest in human MCF7 cells assessed as accumulation at S phase at 4 uM after 24 hrs by propidium iodide staining based flow cytometry (reference value: 14.30%)
- Format: functional
I would appreciate it if you labelled entries satisfied when Activity is 10% or higher, otherwise not satisfied.

Look over these answered cases.
COc1cc2c(cc1O)N=C[C@@H]1CCCN1C2=O | satisfied
COc1ccc(-c2ccc3c(c2)c2cc(-c4ccc(OC)cc4)ccc2n3CCCCOc2cc3c(cc2OC)C(=O)N2CCC[C@H]2C=N3)cc1 | satisfied
COc1ccc(-c2ccc3c(c2)c2cc(-c4ccc(OC)cc4)ccc2n3CCCCN2CCN(CCCCOc3cc4c(cc3OC)C(=O)N3CCC[C@H]3C=N4)CC2)cc1 | not satisfied
COc1cc2c(cc1OCCCN1CCN(CCCn3c4ccccc4c4ccccc43)CC1)N=C[C@@H]1CCCN1C2=O | not satisfied
COc1cc2c(cc1OCCCCCn1c3ccccc3c3ccccc31)N=C[C@@H]1CCCN1C2=O | satisfied

Switching to the query record.
Given COc1ccc(-c2ccc3[nH]c4ccc(-c5ccc(OC)cc5)cc4c3c2)cc1 , state whether its Activity is at least 10%.
satisfied

----------
Record form. Attribute: log10 GI50. Fill in for each entry.
- Tested on: ZR-75-1
- testName: Growth inhibition of human ZR-75-1 cells
- Type: functional
In plain terms, each number is the log10 of measured GI50 in nM.

Solved cases below.
COc1cc2c(cc1OCCCCCn1c3ccccc3c3ccccc31)N=C[C@@H]1CCCN1C2=O | 3.25
COc1cc2c(cc1OCCCn1c3ccccc3c3ccccc31)N=C[C@@H]1CCCN1C2=O | 3.28
COc1cc2c(cc1OCCCN1CCN(CCCCn3c4ccccc4c4ccccc43)CC1)N=C[C@@H]1CCCN1C2=O | 2.18
COc1cc2c(cc1OCCCCN1CCN(CCCCn3c4ccccc4c4ccccc43)CC1)N=C[C@@H]1CCCN1C2=O | 2.18
COc1cc2c(cc1OCCCN1CCN(CCCn3c4ccccc4c4ccccc43)CC1)N=C[C@@H]1CCCN1C2=O | 2.11
COc1cc2c(cc1O)N=C[C@@H]1CCCN1C2=O | 3.37

Moving on to the next molecule.
The molecule COc1cc2c(cc1OCCCCCCn1c3ccccc3c3ccccc31)N=C[C@@H]1CCCN1C2=O , tested on ZR-75-1, showed log10 GI50 of 3.33

----------
- Test system: ZR-75-1
- testName: Growth inhibition of human ZR-75-1 cells
- Assay type: functional
Record form. Attribute: GI50. Fill in for each entry.
Numbers only, in nM.

Solved cases below.
COc1cc2c(cc1OCCCCN1CCN(CCCn3c4ccccc4c4ccccc43)CC1)N=C[C@@H]1CCCN1C2=O | 160
COc1ccc(-c2ccc3c(c2)c2cc(-c4ccc(OC)cc4)ccc2n3CCCCN2CCN(CCCCOc3cc4c(cc3OC)C(=O)N3CCC[C@H]3C=N4)CC2)cc1 | 120
COc1ccc(-c2ccc3c(c2)c2cc(-c4ccc(OC)cc4)ccc2n3CCCN2CCN(CCCOc3cc4c(cc3OC)C(=O)N3CCC[C@H]3C=N4)CC2)cc1 | 130

The compound COc1cc2c(cc1OCCCCn1c3ccccc3c3ccccc31)N=C[C@@H]1CCCN1C2=O , tested on ZR-75-1, showed GI50 of 1810

----------
- testName: Toxicity in iv dosed NOD-SCID mouse xenografted with human PC3 cells assessed as maximum tolerated dose administered q4d on days 1, 5 and 9
- Type: organism-based, PC-3
- testContext: in vivo
valueKind: MTD

Looking up COc1ccc(-c2ccc3c(c2)c2cc(-c4ccc(OC)cc4)ccc2n3CCCCN2CCN(CCCCOc3cc4c(cc3OC)C(=O)N3CCC[C@H]3C=N4)CC2)cc1 , I see its MTD listed as < 50 mg/kg

----------
Record form. Attribute: ΔTm. Fill in for each entry.
- System: Calf thymus DNA
- testName: Binding affinity to calf thymus DNA assessed as change in melting temperature at compound to DNA ratio of 1:5 after 18 hrs by thermal denaturation analysis
- Format: nucleic-acid assay
- testContext: Bos taurus
Respond with the figure and its unit, in that order.

Solved cases below.
COc1ccc(-c2ccc3c(c2)c2cc(-c4ccc(OC)cc4)ccc2n3CCCCN2CCN(CCCCOc3cc4c(cc3OC)C(=O)N3CCC[C@H]3C=N4)CC2)cc1 | 10.2 °C
COc1ccc(-c2ccc3c(c2)c2cc(-c4ccc(OC)cc4)ccc2n3CCCCOc2cc3c(cc2OC)C(=O)N2CCC[C@H]2C=N3)cc1 | 4.3 °C
COc1cc2c(cc1OCCCn1c3ccccc3c3ccccc31)N=C[C@@H]1CCCN1C2=O | 4 °C
COc1cc2c(cc1OCCCN1CCN(CCCn3c4ccccc4c4ccccc43)CC1)N=C[C@@H]1CCCN1C2=O | 7 °C
COc1cc2c(cc1OCCCCCCn1c3ccccc3c3ccccc31)N=C[C@@H]1CCCN1C2=O | 4.7 °C
COc1ccc(-c2ccc3c(c2)c2cc(-c4ccc(OC)cc4)ccc2n3CCCOc2cc3c(cc2OC)C(=O)N2CCC[C@H]2C=N3)cc1 | 4.8 °C

Moving on to the next molecule.
Looking up COc1cc2c(cc1OCCCCCn1c3ccccc3c3ccccc31)N=C[C@@H]1CCCN1C2=O , I see its ΔTm listed as 4.9 °C

----------
- System: MCF7
- testName: Cell cycle arrest in human MCF7 cells assessed as accumulation at G1 phase at 4 uM after 24 hrs by propidium iodide staining based flow cytometry (reference value: 57.98%)
- Assay type: functional
valueKind: Activity (%)
Answers are plain numbers, in %.

COc1ccc(-c2ccc3[nH]c4ccc(-c5ccc(OC)cc5)cc4c3c2)cc1 | 62.24
COc1ccc(-c2ccc3c(c2)c2cc(-c4ccc(OC)cc4)ccc2n3CCCCN2CCN(CCCCOc3cc4c(cc3OC)C(=O)N3CCC[C@H]3C=N4)CC2)cc1 | 63.03
COc1cc2c(cc1OCCCCCn1c3ccccc3c3ccccc31)N=C[C@@H]1CCCN1C2=O | 68.24

Give me Activity for each of these molecules, listed below.
1. COc1cc2c(cc1O)N=C[C@@H]1CCCN1C2=O
2. COc1cc2c(cc1OCCCN1CCN(CCCn3c4ccccc4c4ccccc43)CC1)N=C[C@@H]1CCCN1C2=O
3. COc1ccc(-c2ccc3c(c2)c2cc(-c4ccc(OC)cc4)ccc2n3CCCCOc2cc3c(cc2OC)C(=O)N2CCC[C@H]2C=N3)cc1

1: 63.79; 2: 69.47; 3: 62.6

----------
- Test system: MCF7
- testName: Cell cycle arrest in human MCF7 cells assessed as accumulation at G0/G1 phase at 4 uM after 24 hrs by propidium iodide staining based flow cytometry (reference value: 60.75%)
- Type: functional
I would appreciate it if you labelled entries yes when Activity is 70% or higher, otherwise no.

Look over these answered cases.
COc1cc2c(cc1O)N=C[C@@H]1CCCN1C2=O | no
COc1ccc(-c2ccc3[nH]c4ccc(-c5ccc(OC)cc5)cc4c3c2)cc1 | no
COc1ccc(-c2ccc3c(c2)c2cc(-c4ccc(OC)cc4)ccc2n3CCCCN2CCN(CCCCOc3cc4c(cc3OC)C(=O)N3CCC[C@H]3C=N4)CC2)cc1 | yes
COc1ccc(-c2ccc3c(c2)c2cc(-c4ccc(OC)cc4)ccc2n3CCCCOc2cc3c(cc2OC)C(=O)N2CCC[C@H]2C=N3)cc1 | no

Given COc1cc2c(cc1OCCCN1CCN(CCCn3c4ccccc4c4ccccc43)CC1)N=C[C@@H]1CCCN1C2=O , state whether its Activity is at least 70%.
yes

----------
Record form. Attribute: GI50. Fill in for each entry.
- Test system: SiHa
- testName: Growth inhibition of human SiHa cells
- Assay type: functional
One number for each entry, in nM.

Solved cases below.
COc1ccc(-c2ccc3c(c2)c2cc(-c4ccc(OC)cc4)ccc2n3CCCCN2CCN(CCCCOc3cc4c(cc3OC)C(=O)N3CCC[C@H]3C=N4)CC2)cc1 | 110
COc1cc2c(cc1OCCCCN1CCN(CCCn3c4ccccc4c4ccccc43)CC1)N=C[C@@H]1CCCN1C2=O | 160

Give me GI50 for each of these compounds, listed below.
1. COc1cc2c(cc1OCCCCN1CCN(CCCCn3c4ccccc4c4ccccc43)CC1)N=C[C@@H]1CCCN1C2=O
2. COc1ccc(-c2ccc3c(c2)c2cc(-c4ccc(OC)cc4)ccc2n3CCCN2CCN(CCCOc3cc4c(cc3OC)C(=O)N3CCC[C@H]3C=N4)CC2)cc1
3. COc1cc2c(cc1O)N=C[C@@H]1CCCN1C2=O

1. 150
2. 120
3. 170
